Target: recombinant human IL-18 (human, UniProt Q14116 37-193)
Assay: cell-based or functional assay
Documented IC50, IFNγ release by human PBMC stimulated with LPS and IL-12 (endogenous IL-18) across a set of binders
Answer in nM, number only, no unit symbol.

Sample records with IC50, IFNγ release by human PBMC stimulated with LPS and IL-12 (endogenous IL-18):
binder="Antibody 8 GL IgG2 (antibody, V domains shown, Germlined; whole human IgG2, kappa light chain) VH: QVQLQESGPGLVKPSETLSLTCTVSGGSISAGGYYWSWIRQPPGKGLEWIGSLYYSGSTYYNPSLKGRVTISGDTSKNQFSLKLSSVTAADTAVYYCARTPAYFGQDRTDFFDVWGRGTLVTVSS VL: DIQMTQSPSTLSASVGDRVTITCRASQGISSWLAWYQQKPGKAPKVLIYKASTLESGVPSRFSGSGSGTEFTLTISSLQPDDFATYYCQQSHHPPWTFGQGTKLEIK" assayvalue=0.51
binder="Antibody 11 GL IgG2 (antibody, V domains shown) VH: QVQLQESGPGLVKPSETLSLTCTVSGGSISADGYYWSWIRQPPGKGLEWIGSLYYSGSTYYNPSLRGRVTISGDTSKNQFSLKLSSVTAADTAVYYCARTPAYFGQDRTDFFDVWGRGTLVTVSS VL: DIQMTQSPSTLSASVGDRVTITCRASQGISSWLAWYQQKPGKAPKVLIYKASTLESGVPSRFSGSGSGTEFTLTISSLQPDDFATYYCQQSHHPPWTFGQGTKLEIK" assayvalue=0.25
binder="Antibody 12 GL IgG2 (antibody, V domains shown, Germlined; whole human IgG2, kappa light chain) VH: QVQLQESGPGLVKPSETLSLTCTVSGGSISADGYYWSWIRQPPGKGLEWIGSLYYSGSTYYNPSLKGRVTISGDTSKNQFSLKLSSVTAADTAVYYCARTPAYFGQDRTDFFDVWGRGTLVTVSS VL: DIQMTQSPSTLSASVGDRVTITCRASQGISSWLAWYQQKPGKAPKVLIYKASTLESGVPSRFSGSGSGTEFTLTISSLQPDDFATYYCQQSHHPPWTFGQGTKLEIK" assayvalue=0.32

// query Return IC50, IFNγ release by human PBMC stimulated with LPS and IL-12 (endogenous IL-18) for the following binder: Antibody 12 GL IgG1TM (antibody, V domains shown, Human IgG1 (gamma 1 (f)) constant domains with three single amino acid substitutions (TM, Oganesyan et al 2008) and human kappa Km3 light chain constant domain; Expressed in CHO cells; also called germlined Antibody 12 IgG1TM) VH: QVQLQESGPGLVKPSETLSLTCTVSGGSISADGYYWSWIRQPPGKGLEWIGSLYYSGSTYYNPSLKGRVTISGDTSKNQFSLKLSSVTAADTAVYYCARTPAYFGQDRTDFFDVWGRGTLVTVSS VL: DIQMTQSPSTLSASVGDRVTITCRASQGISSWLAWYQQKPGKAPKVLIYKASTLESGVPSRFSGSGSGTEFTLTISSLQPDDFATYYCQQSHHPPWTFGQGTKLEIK
// result 0.15
